The entries below are paired with their reported IC50.
targetOrSystem: MAO-A (Rattus norvegicus)
Construct: mitochondria prepared from the liver of rats; from tissue; host or cells: rat liver mitochondria
experimentalDetails: In vitro inhibition of monoamine oxidase A (oxygen electrode, rat liver mitochondria, substrate serotonin)
Assay type: biochemical
conditionNotes: rat liver mitochondria, 37° C., preincubated, substrate serotonin (5-HT); read-out: IC50 MAO-A
Supply the numeric figure in µM, leaving out any unit text.

Example results:
{"columns": ["entrySmiles", "measurementUnits", "assayValue"],
 "data": [
  ["FC(F)(F)c1nc(-c2ccc(OCCCn3ccnc3)cc2)no1", "µM", 200],
  ["ClC(Cl)(Cl)c1nc(-c2ccc(OCCCn3ccnc3)cc2)no1", "µM", 200],
  ["CCc1nc(-c2ccc(OCCCc3ccccc3)cc2)no1", "µM", 200],
  ["Cc1nc(-c2ccc(OCc3cccc(Cl)c3)cc2)no1", "µM", 200]
]}

-- ask Please state recorded IC50 (tested on MAO-A (Rattus norvegicus)) of "Cc1nc(-c2ccc(OCc3ccccc3)cc2)no1"
-- reply 50

-- ask Request body: readout IC50, system MAO-A (Rattus norvegicus), query "CCc1nc(-c2ccc(OCCCn3ccnc3)cc2)no1" . Return the value.
-- reply 200

-- ask Report IC50 for "CCc1nc(-c2ccc(OCCn3ccnc3)cc2)no1" tested on MAO-A (Rattus norvegicus).
-- reply 90

-- ask Please provide the recorded IC50 for "CCCOc1ccc(-c2noc(C)n2)cc1" , tested on MAO-A (Rattus norvegicus).
-- reply 18

-- ask MAO-A (Rattus norvegicus) / IC50 / "CNc1nc(-c2ccc(OCCCn3ccnc3)cc2)no1" : value?
-- reply 110

-- ask Tell me reported IC50 for "c1ccc(-c2nc(-c3ccc(OCCCn4ccnc4)cc3)no2)cc1" , tested with MAO-A (Rattus norvegicus).
-- reply 100

###

targetOrSystem: MAO-B (Rattus norvegicus)
Construct: mitochondria prepared from the liver of rats; from tissue; host or cells: rat liver mitochondria
experimentalDetails: In vitro inhibition of monoamine oxidase B (oxygen electrode, rat liver mitochondria, substrate benzylamine)
Assay type: biochemical
conditionNotes: rat liver mitochondria, 37° C., preincubated, substrate benzylamine (BA); read-out: IC50 MAO-B
quantityMeasured: log10(IC50) (log10 of the value in µM)
Scale: log10; quantity: IC50; unit before log: µM

{"columns": ["entrySmiles", "log10(IC50)"],
 "data": [
  ["CNc1nc(-c2ccc(OCCCn3ccnc3)cc2)no1", 0.08],
  ["FC(F)(F)C(F)(F)c1nc(-c2ccc(OCCCn3ccnc3)cc2)no1", -1.05],
  ["Cc1nc(-c2ccc(OCCCc3ccccc3)cc2)no1", 1.34]
]}

-- ask What does the data say about its log10(IC50)? Entry: "CCc1nc(-c2ccc(OCCCN3CCN(C)CC3)cc2)no1"
-- reply 2.00

-- ask Request the reported log10(IC50) associated with "CCCOc1ccc(-c2noc(CC)n2)cc1"
-- reply 1.00

-- ask Could you tell me which log10(IC50) is on file for "Cc1nc(-c2ccc(OCc3ccncc3)cc2)no1" ?
-- reply 1.40

-- ask Look up log10(IC50): "Cc1nc(-c2ccc(OCc3cccnc3)cc2)no1"
-- reply 1.48

-- ask Dear colleague, I am looking for the recorded log10(IC50) of the following compound: "CCc1nc(-c2ccc(OCCCc3ccccc3)cc2)no1"
-- reply 2.30

-- ask Fill in: log10(IC50) of "CCc1nc(-c2ccc(OCc3ccccc3)cc2)no1" is ___
-- reply 0.90

-- ask I would be grateful if you could share the reported log10(IC50) for "Cc1nc(-c2ccc(OCc3ccccc3)cc2)no1" .
-- reply 0.68

###

targetOrSystem: MAO-B (Rattus norvegicus, UniProt P19643)
Construct: mitochondria prepared from the liver of rats; from tissue; host or cells: rat liver mitochondria
Sequence (P19643 1-520): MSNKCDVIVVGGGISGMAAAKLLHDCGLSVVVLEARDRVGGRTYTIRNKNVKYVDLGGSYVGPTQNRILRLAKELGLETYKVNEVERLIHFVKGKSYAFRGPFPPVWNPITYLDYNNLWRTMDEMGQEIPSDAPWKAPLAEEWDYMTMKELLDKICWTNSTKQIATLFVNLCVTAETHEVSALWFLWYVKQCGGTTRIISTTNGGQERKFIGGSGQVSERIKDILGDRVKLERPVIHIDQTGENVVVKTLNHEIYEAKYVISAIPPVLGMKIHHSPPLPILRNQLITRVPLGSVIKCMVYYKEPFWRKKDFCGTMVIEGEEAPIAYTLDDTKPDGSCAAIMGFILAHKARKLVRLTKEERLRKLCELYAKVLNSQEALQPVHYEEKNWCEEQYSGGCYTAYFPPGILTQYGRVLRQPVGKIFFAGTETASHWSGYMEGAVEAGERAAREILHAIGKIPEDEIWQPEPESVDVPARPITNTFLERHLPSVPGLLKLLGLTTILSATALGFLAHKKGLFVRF
experimentalDetails: In vitro inhibition of monoamine oxidase B (oxygen electrode, rat liver mitochondria, substrate benzylamine)
Type: biochemical
conditionNotes: rat liver mitochondria, 37° C., preincubated, substrate benzylamine (BA); read-out: IC50 MAO-B
quantityMeasured: pIC50
Lab note: report pIC50 as minus log10 of the concentration in molar units, number only.

The cases that follow already have their pIC50 on record.
{"columns": ["entrySmiles", "targetOrSystem", "pIC50"],
 "data": [
  ["FC(F)(F)c1nc(-c2ccc(OCCCn3ccnc3)cc2)no1", "MAO-B (Rattus norvegicus, UniProt P19643)", 7.52],
  ["CCc1nc(-c2ccc(OCCCc3cccnc3)cc2)no1", "MAO-B (Rattus norvegicus, UniProt P19643)", 4.70],
  ["O=C1CCCN1CCCOc1ccc(-c2noc(-c3ccccc3)n2)cc1", "MAO-B (Rattus norvegicus, UniProt P19643)", 4.00],
  ["c1ccc(-c2nc(-c3ccc(OCCCn4ccnc4)cc3)no2)cc1", "MAO-B (Rattus norvegicus, UniProt P19643)", 4.30],
  ["Cc1nc(-c2ccc(OCc3cccc(Cl)c3)cc2)no1", "MAO-B (Rattus norvegicus, UniProt P19643)", 5.52]
]}

-- ask # get_value(readout='pIC50', item= "CCc1nc(-c2ccc(OCCCN3C(=O)c4ccccc4C3=O)cc2)no1" )
-- reply 4.00

-- ask // lookup pIC50 for "CNc1nc(-c2ccc(OCc3ccccc3)cc2)no1"
-- reply 5.15

-- ask Entry "CCCN(CCC)CCCOc1ccc(-c2noc(-c3ccccc3)n2)cc1" : reported pIC50 = ?
-- reply 4.30

-- ask Entry "CCc1nc(-c2ccc(OCCCn3ccnc3C)cc2)no1" : reported pIC50 = ?
-- reply 3.82

-- ask Recorded pIC50 for "ClC(Cl)(Cl)c1nc(-c2ccc(OCCCn3ccnc3)cc2)no1" , please?
-- reply 7.52

###

targetOrSystem: MAO-A (Rattus norvegicus)
Construct: mitochondria prepared from the liver of rats; from tissue; host or cells: rat liver mitochondria
Sequence (P21396 1-526): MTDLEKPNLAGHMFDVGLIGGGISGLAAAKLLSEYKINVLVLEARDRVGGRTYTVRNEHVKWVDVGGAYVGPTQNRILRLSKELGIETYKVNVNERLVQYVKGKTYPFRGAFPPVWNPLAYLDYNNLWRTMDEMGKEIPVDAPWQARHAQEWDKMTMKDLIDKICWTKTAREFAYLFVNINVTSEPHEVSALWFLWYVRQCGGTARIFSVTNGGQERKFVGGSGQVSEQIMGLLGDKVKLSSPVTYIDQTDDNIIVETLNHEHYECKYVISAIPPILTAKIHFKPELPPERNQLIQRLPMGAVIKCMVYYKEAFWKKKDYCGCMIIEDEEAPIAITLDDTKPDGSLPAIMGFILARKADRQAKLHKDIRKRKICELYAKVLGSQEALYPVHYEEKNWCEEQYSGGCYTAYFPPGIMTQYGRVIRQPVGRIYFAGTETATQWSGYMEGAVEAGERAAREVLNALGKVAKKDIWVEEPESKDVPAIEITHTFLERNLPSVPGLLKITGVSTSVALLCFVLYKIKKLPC
experimentalDetails: In vitro inhibition of monoamine oxidase A (oxygen electrode, rat liver mitochondria, substrate serotonin)
Format: biochemical
conditionNotes: rat liver mitochondria, 37° C., preincubated, substrate serotonin (5-HT); read-out: IC50 MAO-A
The reader will find reported pIC50 values listed item by item below.
// scale note: pIC50 = -log10(conc_M); give the bare number

{"columns": ["compound", "quantityMeasured", "assayValue"],
 "data": [
  ["CCc1nc(-c2ccc(OCCCN3CCN(C)CC3)cc2)no1 [Example 13]", "pIC50", 4.00],
  ["CCCN(CCC)CCCOc1ccc(-c2noc(-c3ccccc3)n2)cc1 [Example 9]", "pIC50", 4.00],
  ["CCc1nc(-c2ccc(OCCCN(CC)CC)cc2)no1 [Example 8]", "pIC50", 4.00],
  ["CNc1nc(-c2ccc(OCc3ccccc3)cc2)no1 [Example 33]", "pIC50", 4.00],
  ["FC(F)(F)C(F)(F)c1nc(-c2ccc(OCCCn3ccnc3)cc2)no1 [Example 22]", "pIC50", 4.00]
]}

-- ask Item: Cc1nc(-c2ccc(OCCCc3ccccc3)cc2)no1 [Example 29] Test system: MAO-A (Rattus norvegicus) Read-out: pIC50 Value: ?
-- reply 3.96

-- ask Notebook: pull reported pIC50 for MAO-A (Rattus norvegicus), entry CCc1nc(-c2ccc(OCCCN3C(=O)c4ccccc4C3=O)cc2)no1 [Example 10]
-- reply 4.00

-- ask Item: CCc1nc(-c2ccc(OCc3ccccc3)cc2)no1 [Example 19] Test system: MAO-A (Rattus norvegicus) Read-out: pIC50 Value: ?
-- reply 4.00

-- ask Find pIC50 (MAO-A (Rattus norvegicus)) for the entry CCc1nc(-c2ccc(OCCCc3cccnc3)cc2)no1 [Example 14]
-- reply 4.00

-- ask GET /values?readout=pIC50&system=MAO-A (Rattus norvegicus)&item= CCc1nc(-c2ccc(OCCCn3ccnc3C)cc2)no1 [Example 6]
-- reply 3.82

-- ask Field: pIC50 (MAO-A (Rattus norvegicus)). Entry: CCc1nc(-c2ccc(OCCCN3CCOCC3)cc2)no1 [Example 11]
-- reply 3.70

-- ask Form: Entry = c1cn(CCCOc2ccc(-c3noc(C4CC4)n3)cc2)cn1 [Example 4] | System = MAO-A (Rattus norvegicus) | pIC50 = ____
-- reply 4.00

-- ask Item CCCc1nc(-c2ccc(OCCCn3ccnc3)cc2)no1 [Example 3] with MAO-A (Rattus norvegicus) - pIC50?
-- reply 3.70

-- ask # returns recorded pIC50 (system: MAO-A (Rattus norvegicus)) for CCCOc1ccc(-c2noc(CC)n2)cc1 [Example 16]
-- reply 4.32

-- ask Hello, I am looking for reported pIC50 with MAO-A (Rattus norvegicus) for O=C1CCCN1CCCOc1ccc(-c2noc(-c3ccccc3)n2)cc1 [Example 17] . Could you help?
-- reply 4.00

-- ask Under MAO-A (Rattus norvegicus): pIC50 value of Cc1nc(-c2ccc(OCc3ccncc3)cc2)no1 [Example 27] ?
-- reply 3.80

-- ask Which measured pIC50 belongs to Cc1nc(-c2ccc(OCCCn3ccnc3)cc2)no1 [Example 24] , tested on MAO-A (Rattus norvegicus)?
-- reply 3.26

-- ask Lookup: pIC50 / MAO-A (Rattus norvegicus) / CCc1nc(-c2ccc(OCCCN3CCCCC3)cc2)no1 [Example 12]
-- reply 4.00

-- ask Look up pIC50 with MAO-A (Rattus norvegicus) for this compound: Cc1nc(-c2ccc(OCc3cccnc3)cc2)no1 [Example 26]
-- reply 4.00

-- ask Return pIC50 measured with MAO-A (Rattus norvegicus) given this compound: CCCN(CCC)CCCOc1ccc(-c2noc(C)n2)cc1 [Example 25]
-- reply 4.00

-- ask Query the reported pIC50 for MAO-A (Rattus norvegicus); item: CCc1nc(-c2ccc(OCCCn3cnc4ccccc43)cc2)no1 [Example 7]
-- reply 3.82
